# Tested on: CYP1A2
# method.summary: Induction of CYP1A2 mRNA expression in human hepatocytes at 10 uM after 72 hrs by RT-PCR analysis relative to vehicle-treated control
# Type: ADME, cell-based, Hepatocyte
# condition.set: read-out: FC
observed.property: fold induction at 72 h, 10 µM
Just the number.

Please tell me: fold induction at 72 h, 10 µM of C[C@H]1[C@@H](O)O[C@@H]2O[C@@]3(C)CC[C@H]4[C@H](C)CC[C@@H]1[C@@]24OO3 [ARTENIMOL] , system CYP1A2?
1.1

###

# System: UGT2B7
# method.summary: Induction of UGT2B7 mRNA expression in human hepatocytes at 10 uM after 72 hrs by RT-PCR analysis relative to vehicle-treated control
# Assay type: ADME, cell-based, Hepatocyte
# condition.set: read-out: FC
observed.property: fold induction at 72 h, 10 µM
API doc: respond with a numeric literal and nothing else, no unit.

Using the record for C[C@H]1[C@@H](O)O[C@@H]2O[C@@]3(C)CC[C@H]4[C@H](C)CC[C@@H]1[C@@]24OO3 , report its fold induction at 72 h, 10 µM.
0.7
